- Test system: MDA-MB-468 cells
- Assay protocol: Anti-proliferative effect on MDA-MB-468 cells, IC50 (MTT)
- Assay type: cell-based
- Condition parameters: Homo sapiens, MDA-MB-468, 72 h
Quantity: IC50 (nM)

Use these answered entries as a reference point.
{"Compound": "C[C@H](C(=O)Nc1ncc(C(F)(F)F)s1)c1cccc(-c2ccc(NC(=O)/C=C/CN(C)C)nc2)c1", "Value units": "nM", "IC50": 65}
{"Compound": "CCc1cnc(NC(=O)[C@@H](C)c2cccc(-c3cnc(NC(=O)/C=C/CN(C)C)c(C#N)c3)c2)s1", "Value units": "nM", "IC50": 23}
{"Compound": "C[C@H](C(=O)Nc1ncc(C(F)(F)F)s1)c1cccc(-c2cnc3c(c2)CCN3C(=O)/C=C/CN(C)C)c1", "Value units": "nM", "IC50": 74}
{"Compound": "C[C@H](C(=O)Nc1ncc(Cl)s1)c1cccc(-c2cnc(NC(=O)/C=C/CN3CC4CC3CO4)cn2)c1 (some centres unmarked)", "Value units": "nM", "IC50": 59}
{"Compound": "C=CC(=O)Nc1cnc(-c2cncc(C(C)C(=O)Nc3ncc(C(F)(F)F)s3)c2)cn1 (centres unmarked)", "Value units": "nM", "IC50": 10}

A = COc1nc(-c2cccc([C@H](C)C(=O)Nc3ncc(C(F)(F)F)s3)c2)cnc1NC(=O)/C=C/CN(C)C
B = C[C@H](C(=O)Nc1ncc(C(F)(F)F)s1)c1cccc(-c2cnc(NC(=O)/C=C/CN3CCC3)cn2)c1
C = COC[C@@H]1CCCN1C/C=C/C(=O)Nc1cnc(-c2cccc([C@H](C)C(=O)Nc3ncc(C(F)(F)F)s3)c2)cn1
Query :: Give the ascending ranking of the items by reported IC50. Give the labels in the order specified.
Result :: A, C, B

a = CCc1cnc(NC(=O)[C@@H](C)c2cccc(-c3cnc(N(C)C(=O)/C=C/CN(C)C)c(C#N)c3)c2)s1
b = C[C@H](C(=O)Nc1ncc(C(F)(F)F)s1)c1cccc(-c2cnc(NC(=O)/C=C/CN3CCCC3)cn2)c1
c = CC(C(=O)Nc1ncc(C2CC2)s1)c1cccc(-c2ccc(NC(=O)/C=C/CN(C)C)nc2)c1 (centres unmarked)
d = CCc1cnc(NC(=O)[C@@H](C)c2cccc(-c3cnc(NC(=O)/C=C/CN(C)C)c(F)c3)c2)s1
Query :: Rank the 4 compounds: largest IC50 first, smallest last. Give the labels in the order specified.
Result :: c, b, a, d

1 = C=CC(=O)Nc1ncc(-c2cccc([C@H](C)C(=O)Nc3ncc(C(F)(F)F)s3)c2)cc1C#N
2 = C=CC(=O)Nc1ccc(-c2cccc([C@H](C)C(=O)Nc3ncc(C4CC4)s3)c2)cn1
3 = CCc1cnc(NC(=O)[C@@H](C)c2cccc(-c3cnc(NC(=O)/C=C/CN4CC5CC4CO5)c(C#N)c3)c2)s1 (some centres unmarked)
4 = CCc1cnc(NC(=O)C(CC)c2cccc(-c3cnc(NC(=O)/C=C/CN(C)C)c(C#N)c3)c2)s1 (centres unmarked)
Query :: Give the ascending ranking of the items by reported IC50. Give the labels in the order specified.
Result :: 3, 1, 2, 4

====

- Test system: MDA-MB-468 cells
- Assay protocol: Anti-proliferative effect on MDA-MB-468 cells, IC50 (MTT)
- Assay type: cell-based
- Condition parameters: Homo sapiens, MDA-MB-468, 72 h
Quantity: IC50 (nM)

Use these answered entries as a reference point.
{"Compound": "CC(C(=O)Nc1ncc(Cl)s1)c1cncc(-c2cnc(NC(=O)/C=C/CN(C)C)cn2)c1 (stereo not shown) [Example 73]", "Measured target": "MDA-MB-468 cells", "IC50 [nM]": 35}
{"Compound": "C[C@H](C(=O)Nc1ncc(C(F)(F)F)s1)c1cccc(-c2cnc(NC(=O)/C=C/CN3CC4CC3CO4)cn2)c1 (stereo partly shown) [Example 96]", "Measured target": "MDA-MB-468 cells", "IC50 [nM]": 68}

a = CC(C(=O)Nc1ncc(C(F)(F)F)s1)c1cncc(-c2cnc(NC(=O)/C=C/CN3CCOCC3)cn2)c1 (stereo not shown) [Example 74]
b = C[C@H](C(=O)Nc1ncc(C(F)(F)F)s1)c1cccc(-c2cnc(NC(=O)/C=C/CN(C)C)c(C#N)c2)c1 [Example 101]
Query :: Kindly identify the item with the lower IC50 figure among these two: a and b Please respond with the label that marks your chosen entry.
Result :: b

====

- Test system: HepG2 cells
- Assay protocol: HepG2 cell viability assay (CCK-8)
- Assay type: cell-based, human
- Condition parameters: Homo sapiens, HepG2, 72 h
Quantity: IC50 (nM)

{"Compound": "CCc1cnc(NC(=O)[C@@H](C)c2cccc(-c3cnc(NC(=O)/C=C/CN(C)C)c(F)c3)c2)s1", "Value units": "nM", "IC50": 3.8}

P = C[C@H](C(=O)Nc1ncc(C(F)(F)F)s1)c1cccc(-c2cnc(NC(=O)/C=C/CN(C)C)c(C#N)c2)c1
Q = CCc1cnc(NC(=O)[C@@H](C)c2cccc(-c3cnc4c(c3)CCN4C(=O)/C=C/CN(C)C)c2)s1
R = Cc1cc(-c2cccc([C@H](C)C(=O)Nc3ncc(C(F)(F)F)s3)c2)cnc1NC(=O)/C=C/CN(C)C
S = CC(C(=O)Nc1ncc(C(F)(F)F)s1)c1cncc(-c2cnc(NC(=O)/C=C/CN(C)C)cn2)c1 (stereo not shown)
Query :: Rank the 4 compounds: largest IC50 first, smallest last. Give the labels in the order specified.
Result :: Q, R, P, S
(Q: 38 nM, R: 8.7 nM, P: 5 nM, S: 2 nM)

a = C=CC(=O)Nc1ccc(-c2cncc(C(C)C(=O)Nc3ncc(C(F)(F)F)s3)c2)cn1 (stereo not shown)
b = CCc1cnc(NC(=O)C(CC)c2cccc(-c3cnc(NC(=O)/C=C/CN(C)C)c(C#N)c3)c2)s1 (stereo not shown)
Query :: Kindly identify the item with the lower IC50 figure among these two: a and b Please respond with the label that marks your chosen entry.
Result :: a

====

- System: HepG2 cells
- Assay protocol: HepG2 cell viability assay (CCK-8)
- Assay type: cell-based, human
- Condition parameters: Homo sapiens, HepG2, 72 h
Quantity: IC50 (nM)

{"Molecule": "C[C@H](C(=O)Nc1ncc(C(F)(F)F)s1)c1cccc(-c2cnc3c(c2)CCN3C(=O)/C=C/CN(C)C)c1", "Quantity": "IC50", "Measured result": 17.4}
{"Molecule": "C=CC(=O)Nc1cnc(-c2cccc([C@H](C)C(=O)Nc3ncc(C(F)(F)F)s3)c2)cn1", "Quantity": "IC50", "Measured result": 8}

1 = C=CC(=O)Nc1cnc(-c2cncc(C(C)C(=O)Nc3ncc(C(F)(F)F)s3)c2)cn1 (stereo not shown)
2 = CCN(CC)C/C=C/C(=O)Nc1cnc(-c2cccc([C@H](C)C(=O)Nc3ncc(C(F)(F)F)s3)c2)cn1
Query :: Kindly identify the item with the lower IC50 figure among these two: 1 and 2 Please respond with the label that marks your chosen entry.
Result :: 1
(1: 8 nM, 2: 12 nM)

====

- Tested on: MDA-MB-468 cells
- Assay protocol: Anti-proliferative effect on MDA-MB-468 cells, IC50 (MTT)
- Format: cell-based
- Condition parameters: Homo sapiens, MDA-MB-468, 72 h
Quantity: IC50 (nM)

Use these answered entries as a reference point.
{"Compound": "C[C@H](C(=O)Nc1ncc(C(F)(F)F)s1)c1cccc(-c2cnc(NC(=O)/C=C/CN3CCOCC3)cn2)c1", "IC50 / nM": 52}
{"Compound": "CCc1cnc(NC(=O)[C@@H](C)c2cccc(-c3cnc(NC(=O)/C=C/CN(C)C)c(C)c3)c2)s1", "IC50 / nM": 33}
{"Compound": "C[C@H](C(=O)Nc1ncc(C2CC2)s1)c1cccc(-c2ccc(NC(=O)/C=C/CN(C)C)nc2)c1", "IC50 / nM": 46}

a = CCc1cnc(NC(=O)C(C)c2cncc(-c3cnc(NC(=O)/C=C/CN(C)C)c(C#N)c3)c2)s1 (stereo not shown)
b = C[C@H](C(=O)Nc1ncc(C(F)(F)F)s1)c1cccc(-c2cnc(NC(=O)/C=C/CN(C)C)c(C(F)(F)F)c2)c1
Query :: From the recorded data, which exceeds the other in IC50: a or b ? Please respond with the label that marks your chosen entry.
Result :: a
(a: 47 nM, b: 32 nM)

====

- Tested on: MDA-MB-468 cells
- Assay protocol: Anti-proliferative effect on MDA-MB-468 cells, IC50 (MTT)
- Assay type: cell-based
- Condition parameters: Homo sapiens, MDA-MB-468, 72 h
Quantity: IC50 (nM)

Use these answered entries as a reference point.
{"Compound": "CC(C(=O)Nc1ncc(C(F)(F)F)s1)c1cncc(-c2cnc(NC(=O)/C=C/CN(C)C)cn2)c1 (centres unmarked) [Example 63]", "Measured target": "MDA-MB-468 cells", "Measured result": 20}
{"Compound": "COc1cc(-c2cccc([C@H](C)C(=O)Nc3ncc(C(F)(F)F)s3)c2)cnc1NC(=O)/C=C/CN(C)C [Example 100]", "Measured target": "MDA-MB-468 cells", "Measured result": 56}
{"Compound": "CCc1cnc(NC(=O)[C@@H](C)c2cccc(-c3cnc(NC(=O)/C=C/CN4CCOCC4)c(C#N)c3)c2)s1 [Example 135]", "Measured target": "MDA-MB-468 cells", "Measured result": 48}
{"Compound": "C=CC(=O)Nc1ncc(-c2cncc(C(C)C(=O)Nc3ncc(C(F)(F)F)s3)c2)cc1C#N (centres unmarked) [Example 88]", "Measured target": "MDA-MB-468 cells", "Measured result": 54}
{"Compound": "C[C@H](C(=O)Nc1ncc(C(F)(F)F)s1)c1cccc(-c2cnc(NC(=O)/C=C/CN3CCC(O)C3)cn2)c1 (some centres unmarked) [Example 119]", "Measured target": "MDA-MB-468 cells", "Measured result": 44}

A = C[C@H](C(=O)Nc1ncc(C2CCC2)s1)c1cccc(-c2cnc(NC(=O)/C=C/CN(C)C)cn2)c1 [Example 104]
B = C[C@H](C(=O)Nc1ncc(C(F)(F)F)s1)c1cccc(-c2cnc(NC(=O)/C=C/CN(C)C)c(F)c2)c1 [Example 99]
C = C=CC(=O)Nc1ccc(-c2cccc(C(C)C(=O)Nc3ncc(C4CC4)s3)c2)cn1 (centres unmarked) [Example 2]
Query :: Rank the 3 compounds: largest IC50 first, smallest last. Give the labels in the order specified.
Result :: C, A, B
